# MFI values compiled below
target: human MS4A4A (human, UniProt Q96JQ5 1-239); assay: FACS, U937-huMS4A4A, 5 ug/ml
Recorded Endpoint: MFI

[[record]]
binder = "anti-MS4A4A antibody 4A-378 (antibody, V domains shown) VH: QVQLVQSGSELKKPGASVKVSCKASGYIFTSYGLSWVRQAPGQGLEWMGWINTYSGVPTYAQGFTGRFVFSLDTSVSTAYLQISSLKAEDTAVYYCARSMADYWGQGTLVTVSS VL: DVVMTQSPLSLPVTLGQPASISCKSSRSLLYSEGKTYLSWFQQRPGQSPRRLIYLVSKLDSGVPDRFSGSGSGTDFTLKISRVEAEDVGVYYCWQGIDFHQTFGGGTKVEIK"
numeric_readout = 9910

[[record]]
binder = "anti-MS4A4A antibody 4A-312 (antibody, V domains shown, full human IgG) VH: QVQLVQSGAEVKKPGASVKVSCKASGYTFTNYWMQWVRQAPGQGLEWMGATHPGHGDTRYAQKFQGRVTMTRDTSTSTVYMELSSLRSEDTAVYYCAREEVDYGFRSYWYFDVWGRGTLVTVSS VL: EIVLTQSPATLSLSPGERATLSCRASESVDNYGVSFMNWYQQKPGQAPRLLIYGASNQQSGIPARFSGSGSGTDFTLTISSLEPEDFAVYYCQQSKEVPPTFGGGTKVEIK"
numeric_readout = 17700

[[record]]
binder = "anti-MS4A4A antibody 4A-369 (antibody, V domains shown, full human IgG) VH: QVQLVQSGSELKKPGASVKVSCKASGYTFTSYGLSWIRQAPGQGLEWMGWINTYSGVPTYAQGFTGRFVFSLDTSVSTAYLQISSLKAEDTAVYYCARTMVDYWGQGTLVTVSS VL: DVVMTQSPLSLPVTLGQPASISCKSSQSLLYSDGKTYLSWFQQRPGQSPRRLIYLVSKLDSGVPDRFSGSGSGTDFTLKISRVEAEDVGVYYCWQGIRFHQTFGGGTKVEIK"
numeric_readout = 10100

